experiment-notes: log P by HPLC on reversed-phase columns (C 18), method [a], acidic range pH 2.3
Format: physicochemical
experimental-setup: pH 2.3
Let's look at some compounds and their measured log p.

Some solved cases for reference:
O=C1C[C@@H](O)CN1c1cccc(Nc2ncc(Cl)c(NC3CC3)n2)c1; 0.98[a];
C=CCNc1nc(Nc2ccc(N3CCOC3=O)cc2)ncc1Cl; 1.25[a];
O=C1CCCN1c1cccc(Nc2ncc(Cl)c(NCC(F)F)n2)c1; 1.64[a];
O=C1OCCN1c1ccc(Nc2ncc(I)c(NC3CC3)n2)cc1; 1.41[a];
CNc1nc(Nc2cccc(N3CCCC3=O)c2)ncc1Cl; 1.05[a]

So for CC1CCC(=O)N1c1cccc(Nc2ncc(Cl)c(NC3CC3)n2)c1 (stereo not shown) [Example 125] , the logged log p turned out to be 2.59[a];

The recorded log p for entry "C[C@@H]1COC(=O)N1c1cccc(Nc2ncc(Cl)c(NC3CCC3)n2)c1" equals 1.56[a]

Given item "O=C1CCCN1c1cccc(Nc2ncc(F)c(NC3CCC3)n2)c1" , the value recorded as its log p is 1.31[a];

Form: compound = "CCC1=C(C)CN(c2cccc(Nc3ncc(Cl)c(NC4CC4)n3)c2)C1=O" ; log p = 2.2[a]

Record summary for "CC1(C)CC(=O)N(c2cccc(Nc3ncc(Cl)c(NC4CC4)n3)c2)C1=O" : reported log p = 1.83[a]

Value of log p reported for the compound "CC1(C)CC(=O)N(c2cccc(Nc3ncc(Br)c(NC4CCC4)n3)c2)C1=O" is 2.19[a]

For record COCC(C)Nc1nc(Nc2ccc(N3CCCC3=O)cc2)ncc1Cl (stereo not shown) the listed log p is 1.51[a];

Measured log p, "O=C1CCCN1c1cccc(Nc2ncc(Cl)c(NCC(F)(F)F)n2)c1" : 2.08[a];
